- System: Epidermal growth factor receptor (Homo sapiens), P00533 [L861Q]
- Sequence (P00533 whole entry L861Q): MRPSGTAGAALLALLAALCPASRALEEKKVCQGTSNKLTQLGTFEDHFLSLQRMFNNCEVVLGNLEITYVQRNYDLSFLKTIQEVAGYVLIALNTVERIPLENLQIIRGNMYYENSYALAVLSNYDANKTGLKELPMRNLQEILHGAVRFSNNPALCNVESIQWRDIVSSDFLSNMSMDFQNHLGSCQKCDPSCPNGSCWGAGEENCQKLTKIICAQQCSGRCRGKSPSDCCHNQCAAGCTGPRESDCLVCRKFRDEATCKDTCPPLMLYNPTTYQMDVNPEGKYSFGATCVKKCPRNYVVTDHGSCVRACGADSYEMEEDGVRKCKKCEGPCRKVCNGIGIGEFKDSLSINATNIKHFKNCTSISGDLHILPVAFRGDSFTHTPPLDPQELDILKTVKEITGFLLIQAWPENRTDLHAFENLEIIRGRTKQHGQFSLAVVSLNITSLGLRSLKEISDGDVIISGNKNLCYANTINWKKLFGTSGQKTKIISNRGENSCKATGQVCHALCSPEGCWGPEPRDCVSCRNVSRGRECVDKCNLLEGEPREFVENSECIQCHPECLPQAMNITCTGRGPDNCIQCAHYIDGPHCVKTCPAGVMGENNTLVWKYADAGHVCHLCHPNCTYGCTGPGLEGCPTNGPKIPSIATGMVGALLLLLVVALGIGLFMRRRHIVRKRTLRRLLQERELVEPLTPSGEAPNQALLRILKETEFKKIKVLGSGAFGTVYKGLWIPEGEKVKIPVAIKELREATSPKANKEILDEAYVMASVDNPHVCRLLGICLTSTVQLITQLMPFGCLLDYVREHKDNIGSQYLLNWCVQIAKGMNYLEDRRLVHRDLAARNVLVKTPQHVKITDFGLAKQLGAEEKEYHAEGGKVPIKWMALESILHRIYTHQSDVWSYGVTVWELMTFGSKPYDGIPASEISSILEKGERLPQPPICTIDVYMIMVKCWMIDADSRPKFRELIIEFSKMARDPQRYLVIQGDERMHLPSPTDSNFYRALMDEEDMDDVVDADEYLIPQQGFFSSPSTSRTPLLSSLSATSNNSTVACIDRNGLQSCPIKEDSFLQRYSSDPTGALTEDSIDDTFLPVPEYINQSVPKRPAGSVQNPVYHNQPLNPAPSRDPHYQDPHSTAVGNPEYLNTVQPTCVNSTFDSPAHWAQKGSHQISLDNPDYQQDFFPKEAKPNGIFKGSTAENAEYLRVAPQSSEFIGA
- Condition set: at 0.1 µM
Measured metric: inhibition

Example cases with answers are listed next.
In [3]: df
Out[3]:
                                     smiles  test_value
0  CCN(CC)Cc1ccc(Nc2nccc(-c3cnn4ncccc34)n2)cc1       1.51%
1  CCC(=O)Nc1ccc(C)c(-c2ccc(C(=O)NCC3CC3)cc2)c1       3.28%
2  NC(=O)Cc1ccccc1Oc1nccc(-c2c(-c3ccc(F)cc3)ncn2C2CCNCC2)n1       1.25%
3  CN(c1ccc(NC(=O)Nc2c(Cl)cccc2Cl)cc1)c1ccnc(Nc2cccc(CS(C)(=O)=O)c2)n1       4.35%

Switching to the query record.
q: So what's the measured inhibition for this one? "Fc1ccc(-c2ncn(C3CCNCC3)c2-c2ccnc(Oc3ccc(Oc4ccccc4)cc3)n2)cc1"
a: 2.06%

* * *

- Target or test system: Calcium/calmodulin-dependent protein kinase type II subunit delta (Homo sapiens) (UniProt Q13557);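 also: percent inhibition values are means, taken from the GSK PKIS kinase profiling set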
- Sequence (Q13557 whole entry): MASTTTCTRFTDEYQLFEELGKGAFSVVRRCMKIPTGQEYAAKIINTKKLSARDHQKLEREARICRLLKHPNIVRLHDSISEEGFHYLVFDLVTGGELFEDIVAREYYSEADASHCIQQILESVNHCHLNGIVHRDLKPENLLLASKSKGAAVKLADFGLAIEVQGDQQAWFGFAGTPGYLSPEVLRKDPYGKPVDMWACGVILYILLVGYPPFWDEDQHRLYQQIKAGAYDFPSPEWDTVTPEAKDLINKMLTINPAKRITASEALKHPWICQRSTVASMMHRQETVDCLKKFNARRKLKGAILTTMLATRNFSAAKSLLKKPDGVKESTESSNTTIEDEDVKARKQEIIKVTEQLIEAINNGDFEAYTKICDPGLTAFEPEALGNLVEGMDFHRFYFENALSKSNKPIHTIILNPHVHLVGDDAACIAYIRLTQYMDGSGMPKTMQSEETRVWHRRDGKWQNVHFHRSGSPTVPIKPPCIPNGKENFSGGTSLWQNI
- Condition set: at 0.1 µM
Label scheme for inhibition: lower than 3% is Condition not met, 3% and above is Condition met.

>>> print(df.to_string())
                                     smiles        label_class
0  Fc1ccc(-c2ncn(C3CCNCC3)c2-c2ccnc(Oc3ccc(Oc4ccccc4)cc3)n2)cc1      Condition met
1  COc1ccc2cc(-c3c(-c4ccncc4)nc(-c4ccc(S(C)(=O)=O)cc4C)n3C)ccc2c1      Condition met
2  COc1ccc(C2=C(N3CCc4ccccc43)C(=O)NC2=O)cc1      Condition met
3  O=C1NC(=O)C(c2cccc(Cl)c2)=C1Nc1ccc(Cl)c(C(=O)O)c1  Condition not met
4  c1ccc(Oc2ccc(Nc3ncc(-c4ccccc4)o3)cc2)cc1  Condition not met
5  CCc1ccc(Oc2nccc(-c3c(-c4ccc(F)cc4)ncn3C3CCNCC3)n2)cc1      Condition met

q: For this molecule, is measured inhibition 3% or higher? "Fc1ccc(-c2ncn(CCCN3CCOCC3)c2-c2ccncc2)cc1"
a: Condition not met

q: For this molecule, is measured inhibition 3% or higher? "CN(C)CCCNc1nccc(-c2c(-c3ccc(F)cc3)nn3cc(C(F)(F)F)ccc23)n1"
a: Condition met

q: For this molecule, is measured inhibition 3% or higher? "COc1cc2ncn(-c3cc(OCc4ccccc4C(F)(F)F)c(C(C)=O)s3)c2cc1OC"
a: Condition not met

* * *

- Target or test system: Tyrosine-protein kinase Lck (Homo sapiens);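 also: reported values are mean percent inhibition of Lck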
- Condition set: at 0.1 µM
Measured metric: inhibition (%)
One number for each entry, in %.

Example cases with answers are listed next.
>>> df
                                   compound                     target_or_test_system  test_value
0  CCC(=O)Nc1ccc(C)c(-c2ccc(C(=O)NCC3CC3)cc2)c1  Tyrosine-protein kinase Lck (Homo sapiens)        2.57
1  Cc1ccc(NC(=O)c2ccoc2)cc1-c1ccc(C(=O)NCC2CC2)cc1  Tyrosine-protein kinase Lck (Homo sapiens)        2.02
2  Nc1nccc(-c2c(-c3ccc(F)cc3)ncn2C2CCC(O)CC2)n1 (centres undefined)  Tyrosine-protein kinase Lck (Homo sapiens)         3.6
3    O=C1Nc2ccccc2/C1=C/Nc1ccc(-n2cncn2)cc1  Tyrosine-protein kinase Lck (Homo sapiens)        3.98
4  COc1cc2ncn(-c3cc(OCc4ccccc4C(F)(F)F)c(C(C)=O)s3)c2cc1OC  Tyrosine-protein kinase Lck (Homo sapiens)        4.22

Dear colleague, could you please provide inhibition for the compounds listed below?
1. NC(=O)c1ccc(Oc2nccc(-c3c(-c4ccc(F)cc4)ncn3C3CCNCC3)n2)cc1
2. Fc1ccc(-c2nc3n(c2-c2ccncc2)CCS3)cc1
3. Cc1nnc(-c2ccc(C)c(-c3ccc(C(=O)NCc4ccc(Cl)cc4)cc3)c2)o1
4. CN1CCN(CCCNc2nc3ccc(Oc4ccc(NC(=O)Nc5cc(C(F)(F)F)ccc5F)cc4)cc3[nH]2)CC1
5. COc1ccc2ncn(-c3cc(O[C@H](C)c4ccccc4Cl)c(C(N)=O)s3)c2c1
6. COc1cc(Nc2ncc(-c3ccccc3)o2)cc(OC)c1OC
7. NS(=O)(=O)c1ccc(N/N=C2\C(=O)Nc3ccc(C(=O)NCCCn4ccnc4)cc32)cc1
8. O=C(Nc1ccc(Oc2ccc3[nH]c(NC(=O)c4ccccc4)nc3c2)cc1)Nc1cc(C(F)(F)F)ccc1F

a:
1: 5.07; 2: -2.03; 3: -2.94; 4: -1.91; 5: -2.03; 6: 2.17; 7: 1.53; 8: 2.25

Dear colleague, could you please provide inhibition for the compounds listed below?
1. N#Cc1ccc(Oc2nccc(-c3c(-c4ccc(F)cc4)ncn3C3CCNCC3)n2)cc1
2. CCS(=O)(=O)c1ccc(OC)c(Nc2ncc(-c3cccc(-c4ccccc4F)c3)o2)c1

a:
1. 3.86
2. 9.89

Dear colleague, could you please provide inhibition for the compounds listed below?
1. O=C(NCC1CC1)c1ccc(-c2cccc(C(=O)NC3CC3)c2)cc1
2. NS(=O)(=O)c1ccc(Nc2cc(-c3ccc(O)c(F)c3)n[nH]2)cc1
3. CCN(CC)Cc1ccc(Nc2nccc(-c3cnn4ncccc34)n2)cc1

a:
1: 1.74; 2: -0.68; 3: 1.35

Dear colleague, could you please provide inhibition for the compounds listed below?
1. CCc1nccc2c1nc(-c1nonc1N)n2CC
2. Clc1ccc(CNc2nccc(-c3cnn4ncccc34)n2)cc1
3. COc1cc(C)c(N(C)C(=O)CN(C)C)cc1Nc1nc(Nc2cccc(F)c2C(N)=O)c2cc[nH]c2n1
4. c1ccc(Oc2ccc(Nc3ncc(-c4ccccc4)o3)cc2)cc1

a:
1: 0.67; 2: 2.31; 3: -3.07; 4: 2.67

Dear colleague, could you please provide inhibition for the compounds listed below?
1. COc1ccc(C2=C(N3CCc4ccccc43)C(=O)NC2=O)cc1
2. CN(C)CCCNc1nccc(-c2c(-c3ccc(F)cc3)nn3cc(C(F)(F)F)ccc23)n1
3. CS(=O)(=O)CCNCc1ccc(-c2ccc3ncnc(Nc4ccc(OCc5ccccc5)c(Br)c4)c3c2)o1
4. Fc1ccc(-c2ncn(C3CCNCC3)c2-c2ccnc(Oc3ccc(Oc4ccccc4)cc3)n2)cc1
5. NCc1ccc(-n2c(-c3nonc3N)nc3cnccc32)cc1
6. CCS(=O)(=O)c1ccc(OC)c(Nc2ncc(-c3ccccc3Cl)o2)c1

a:
[4.42, -2.05, 0.4, 4.01, 3.81, 4.24]

Dear colleague, could you please provide inhibition for the compounds listed below?
1. COc1cc(Nc2ncc3c(C)nc(-c4cccc(Oc5ccccc5)c4)n3n2)cc(OC)c1OC
2. c1ccc(-c2n[nH]cc2-c2ccnc(-c3ccc(OCCN4CCOCC4)cc3)c2)nc1
3. CCc1ccc(Oc2nccc(-c3c(-c4ccc(F)cc4)ncn3C3CCNCC3)n2)cc1
4. CN(C)CCOc1ccc(-c2cc(-c3ccc4c(c3)CCC4=NO)c(-c3ccncc3)o2)cc1
5. O=C1Nc2ccc(I)cc2C1=Cc1cc(Br)c(O)c(Br)c1
6. COc1cc(Nc2ncc3c(C)nc(-c4cccc(C(F)(F)F)c4)n3n2)cc(OC)c1OC

a:
1: 1.24; 2: 1.7; 3: 3.37; 4: 2.65; 5: 3.11; 6: 3.24
